- Test system: SF-268 CNS
- assayRemarks: NCI tumour cell line growth inhibition, 48 h
Where a SMILES comes first, the peptide text is derived from it. Peptide text beside a SMILES is read from it. [ ]: non-standard residue; d: D form. The star is where a group is joined. * marks the point of attachment. Phe(4-NO2) = N[CH](Cc1ccc([N+](=O)[O-])cc1)C(=O)O; Boc = CC(C)(C)OC(=O)*; OtBu = CC(C)(C)O*
measureName: TGI

compound	testTarget	result
CCCCCCN1C(=O)CN=C1Nc1ccc2cc3ccc(NC4=NCC(=O)N4CCCCCC)cc3nc2c1	SF-268 CNS	5.72 µM
O=C(O)c1ccccc1-c1ccccc1C(=O)c1ccccc1	SF-268 CNS	> 100 µM
Clc1ncc(C(Cl)(Cl)Cl)nc1-c1ccccc1	SF-268 CNS	5.09 µM
CC(C)=C1CCC(CN2CCCC2)C1=O (stereo not given)	SF-268 CNS	65.7 µM
O=C(NCCCCl)c1c(O)c2ccccc2[nH]c1=O	SF-268 CNS	> 100 µM

**Q:** Fill in: TGI on SF-268 CNS, entry COC(=O)CNC(=O)/C=C/[C@H](O[Si](C)(C)C(C)(C)C)[C@H](/C=C/C(=O)NCC(=O)OC)O[Si](C)(C)C(C)(C)C
**A:** > 25 µM

**Q:** Fill in: TGI on SF-268 CNS, entry COc1ccccc1OC/C(N=Cc1ccncc1)=N/NC(=O)c1ccncc1
**A:** > 100 µM

**Q:** Fill in: TGI on SF-268 CNS, entry COc1cccc(N2N=C3c4ccccc4-n4c(nc5ccccc54)C3C2N)c1 (stereo not given)
**A:** > 100 µM

**Q:** Fill in: TGI on SF-268 CNS, entry COC(=O)C(Cc1ccc([N+](=O)[O-])cc1)NC(=O)C(CC(=O)OC(C)(C)C)NC(=O)OC(C)(C)C (stereo not given) (Boc-Asp(OtBu)-[Phe(4-NO2)]-OMe; configuration not given here)
**A:** > 100 µM

**Q:** Fill in: TGI on SF-268 CNS, entry COC1=CC2(C=CC1=O)CCN=c1c(O)c3c(c(O)c12)=NC=N3 (stereo not given)
**A:** > 100 µM

**Q:** Fill in: TGI on SF-268 CNS, entry CSCCC(NC(=O)C(CC(C)C)NC(=O)CNC(=O)OC(C)(C)C)C(=O)N(C)C (stereo not drawn) (Boc-Gly-Leu-Met-NMe2; configuration not given here)
**A:** > 100 µM

**Q:** Fill in: TGI on SF-268 CNS, entry CC(=O)Nc1ccc(-n2cnc3cc(-c4ccc(OCCN5CCCCC5)cc4)ccc32)cc1
**A:** 11.5 µM

---

- Test system: NCI/ADR-RES ovarian
- assayRemarks: NCI tumour cell line growth inhibition, 48 h
measureName: TGI

molecule	result
C=C(CC1(CC(=C)c2ccc(C(=O)O)cc2)C(=O)N(C)C(=O)N(C)C1=O)c1ccc(C(=O)O)cc1	> 100 µM
Cc1nn(C(=O)c2ccccc2O)c2c1C(c1ccc(O)cc1)SC(N)=N2 (stereo not drawn)	> 10 µM

**Q:** Look up and report measured TGI for this entry: COC(=O)C1(Cc2ccccc2)Cc2ccccc2C1=O (stereo not drawn)
**A:** 72.3 µM

// data source = PubChem BioAssay (NCI)
